Reference source: paper PMC9054915

Assay: Solubility of ipatasertib
Assay type: physicochemical
Details: across the pH range of 1.1–7.0
PROPERTY_MEASURED: solubility

Recorded result, `CC(C)NC[C@@H](C(=O)N1CCN(c2ncnc3c2[C@H](C)C[C@H]3O)CC1)c1ccc(Cl)cc1` , solubility: > 10000 µg/mL

====

Experiment: Blood-to-plasma partition ratio and fraction unbound in plasma
Type: in vitro ADME
Conditions: mean at concentration from 0.1 to 40 µM, data on file, read-out: fu,plasma
PROPERTY_MEASURED: fraction unbound
Numbers only.

Recorded result, `CC(C)NC[C@@H](C(=O)N1CCN(c2ncnc3c2[C@H](C)C[C@H]3O)CC1)c1ccc(Cl)cc1` , fraction unbound: 0.63

====

Experiment: MDCK permeability
Conditions: dog, MDCK
Answer Not fulfilled if Papp is under 4 ×10⁻⁶ cm/s, and Fulfilled if it is 4 ×10⁻⁶ cm/s or more.

These recorded examples may help you get a feel for the data.
{"MOLECULE": "Cc1ncc2n1-c1ccc(Cl)cc1C(c1ccccc1F)=NC2 [Midazolam]", "LABEL_CLASS": "Fulfilled"}
{"MOLECULE": "CN/C(=N/CCSCc1nc[nH]c1C)NC#N [cimetidine]", "LABEL_CLASS": "Not fulfilled"}
{"MOLECULE": "CC(C)NCC(O)COc1cccc2ccccc12 (centres unmarked) [propranolol]", "LABEL_CLASS": "Fulfilled"}
{"MOLECULE": "COCCc1ccc(OCC(O)CNC(C)C)cc1 (centres unmarked) [metoprolol]", "LABEL_CLASS": "Fulfilled"}

For the next question, use this molecule.
hey, is Papp for this one >= 4 ×10⁻⁶ cm/s? CC(C)NC[C@@H](C(=O)N1CCN(c2ncnc3c2[C@H](C)C[C@H]3O)CC1)c1ccc(Cl)cc1 [Ipatasertib] Not fulfilled

====

Target: CYP3A4 (Homo sapiens, UniProt P08684)
Sequence (P08684 whole entry): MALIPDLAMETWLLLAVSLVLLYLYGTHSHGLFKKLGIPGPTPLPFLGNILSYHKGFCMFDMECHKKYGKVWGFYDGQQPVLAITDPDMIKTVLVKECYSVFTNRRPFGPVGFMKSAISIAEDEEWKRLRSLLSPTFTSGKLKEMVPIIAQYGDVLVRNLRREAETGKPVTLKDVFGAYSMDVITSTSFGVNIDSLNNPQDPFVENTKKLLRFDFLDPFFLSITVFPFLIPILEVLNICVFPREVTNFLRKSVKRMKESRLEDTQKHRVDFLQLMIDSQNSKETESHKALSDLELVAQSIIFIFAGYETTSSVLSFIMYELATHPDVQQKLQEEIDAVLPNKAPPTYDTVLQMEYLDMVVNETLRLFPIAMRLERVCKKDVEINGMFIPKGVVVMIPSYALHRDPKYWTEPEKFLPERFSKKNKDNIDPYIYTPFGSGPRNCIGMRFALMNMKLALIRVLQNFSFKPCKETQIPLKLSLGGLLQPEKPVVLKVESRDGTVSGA
Experiment: Clinical study: ipatasertib 300 mg QD with palbociclib (NCT04060862)
Settings: in vivo
PROPERTY_MEASURED: Cmax (ng/mL)
Answers are plain numbers, in ng/mL.

Recorded result, `CC(C)NC[C@@H](C(=O)N1CCN(c2ncnc3c2[C@H](C)C[C@H]3O)CC1)c1ccc(Cl)cc1` , Cmax: 314
